TARGET: 488-GAC (mouse kidney-type glutaminase isoform 2, GAC) (Mus musculus, UniProt D3Z7P3)
Construct: (residues 72-603) was cloned into a pET23a vector; His-tag with thrombin cleavage site (N, cleaved yes)
Sequence (D3Z7P3 72-603 isoform D3Z7P3-2): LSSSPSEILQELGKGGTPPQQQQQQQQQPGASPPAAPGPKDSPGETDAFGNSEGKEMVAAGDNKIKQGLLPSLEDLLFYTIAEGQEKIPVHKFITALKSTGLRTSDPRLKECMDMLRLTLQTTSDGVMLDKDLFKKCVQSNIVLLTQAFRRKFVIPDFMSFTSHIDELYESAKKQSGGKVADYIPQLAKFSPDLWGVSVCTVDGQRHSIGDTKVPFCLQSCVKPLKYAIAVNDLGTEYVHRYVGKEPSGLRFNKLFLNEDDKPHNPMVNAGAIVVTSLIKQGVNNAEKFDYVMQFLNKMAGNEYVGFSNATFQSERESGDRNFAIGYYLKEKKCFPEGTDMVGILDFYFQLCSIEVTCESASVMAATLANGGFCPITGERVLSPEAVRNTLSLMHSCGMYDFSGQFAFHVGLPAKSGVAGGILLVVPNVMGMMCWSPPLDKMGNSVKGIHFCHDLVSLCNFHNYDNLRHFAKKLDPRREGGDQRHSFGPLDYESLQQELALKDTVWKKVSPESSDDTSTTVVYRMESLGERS
MEASUREMENT_PROTOCOL: Real-time binding assay, quenching of 488-GAC fluorescence
MEASUREMENT_CONTEXT: 10 nM 488-GAC, 96-well plate format; read-out: KD of binding isotherm (fluorescence quenching)
Procedure: A plasmid encoding the mouse kidney-type glutaminase isoform 2 (GAC, GenBank Accession No. NP_001106854.1, which is hereby incorporated by reference in its entirety) (residues 72-603) was cloned into a pET23a vector containing an N-terminal histidine (His)-tag and thrombin cleavage site. […] The stoichiometry of labeling was determined using the probe manufacturer's reported molar absorptivity values and instructions. […]
METRIC_NAME: Kd (nM)

compound="CN(C)c1ccc(C2Nc3ccc4ccccc4c3C3=C2C(=O)CC(C)(C)C3)cc1Br (stereo not shown)" target="488-GAC (mouse kidney-type glutaminase isoform 2, GAC) (Mus musculus, UniProt D3Z7P3)" measured_result=3000

Reference source: patent US10526322B2
